B1: Lysozyme C, P61626 (parent)
chain: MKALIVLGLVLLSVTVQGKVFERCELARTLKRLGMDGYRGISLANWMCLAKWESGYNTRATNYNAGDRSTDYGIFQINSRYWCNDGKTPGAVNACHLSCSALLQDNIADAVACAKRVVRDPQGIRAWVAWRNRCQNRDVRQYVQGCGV

Variants of: B1
Settings: Homo sapiens; pH 2.5; Thermal; DSC; glycine-HCl 0.05 M; reversible: yes; structure 1LZ1; whole UniProt chain shown
Measured Property: Tm (°C)
Output spec: scalar in °C, unitless text.

# annotated cases, reported Tm shown
Residue Codes: MKALIVLGLVLLSVTVQGKVFERCELARTLKRLGMDGYRGISLANWMCLAKWESGYNARATNYNAGDRSTDYGIFQINSRYWCNDGKTPGAVNACHLSCSALLQDNIADAVACAKRVVRDPQGIRAWVAWRNRCQNRDVRQYVQGCGV [T58A]
Tm, °C: 56.6

Residue Codes: MKALIVLGLVLLSVTVQGKVFERCELARTLKRLGMDGYRGISLANWMCLAKWESGYNTRATNYNAGDRSVDYGIFQINSRYWCNDGKTPGAVNACHLSCSALLQDNIADAVACAKRVVRDPQGIRAWVAWRNRCQNRDVRQYVQGCGV [T70V]
Tm, °C: 58.8

Residue Codes: MKALIVLGLVLLSVTVQGKVFERCELARTLKRLGMDGYRGISLANWMCLAKWESGYNTRATNYNAGDRSTDYGIFQINSRYWCNDGKAPGAVNACHLSCSALLQDNIADAVACAKRVVRDPQGIRAWVAWRNRCQNRDVRQYVQGCGV [T88A]
Tm, °C: 57.3

Residue Codes: MKALIVLGLVLLSVTVQGKVFERCELARTLKRLGMDGYRGISLANWMCLAKWESGYNTRATNYNAGDRSTDYGIFQINSRYWCNDGKVPGAVNACHLSCSALLQDNIADAVACAKRVVRDPQGIRAWVAWRNRCQNRDVRQYVQGCGV [T88V]
Tm, °C: 59.5

// next item, Tm requested
Q) Consider the variant shown here: MKALIVLGLVLLSVTVQGKVFERCELARTLKRLGMDGYRGISLANWMCLAKWESGYNVRATNYNAGDRSTDYGIFQINSRYWCNDGKTPGAVNACHLSCSALLQDNIADAVACAKRVVRDPQGIRAWVAWRNRCQNRDVRQYVQGCGV [T58V] What is its recorded Tm?
A) 57
